test: Phase 1 single dose escalation pharmacokinetics; conditions: male, human, plasma, po, 10 mg, AUClast, healthy males, single oral 10 mg, mean

>  <COMPOUND>
O=S1(=O)c2ccc(F)cc2Oc2cc(OCC(F)(F)F)ccc21 [CX157]

>  <UNITS_TEXT>
ng·h/mL

>  <AUC(0-t)>
69

$$$$

* * *

test: Phase I 14-day twice-daily pharmacokinetics; details: human, plasma, oral, 40 mg, Tmax, healthy volunteers, 40 mg twice daily, Day 14, median, N = 4

>  <SMI>
O=S1(=O)c2ccc(F)cc2Oc2cc(OCC(F)(F)F)ccc21

>  <Tmax [min]>
30

$$$$

* * *

experiment: Phase 1 single dose escalation pharmacokinetics; conditions: male, human, plasma, po, 15 mg, AUC0-48, healthy males, single oral 15 mg, mean

>  <COMPOUND>
O=S1(=O)c2ccc(F)cc2Oc2cc(OCC(F)(F)F)ccc21 [CX157]

>  <AUC(0-t) (ng·h/mL)>
129

$$$$

* * *

Assay: Phase 1 single dose escalation pharmacokinetics
Conditions: male, human, plasma, po, 10 mg
Description: Methods: The trial was a Phase 1, single center, double-blind, placebo-controlled, sequential group, acute dose escalation study of the safety and pharmacokinetics of seven (7) CX157 dose levels in healthy male volunteers. […] Safety and tolerability was assessed for each dose group by the Principal Investigator before advancing to the next scheduled dose group. […]
PROPERTY_NAME: Tmax (h)

>  <COMPOUND>
O=S1(=O)c2ccc(F)cc2Oc2cc(OCC(F)(F)F)ccc21 [CX157]

>  <PROPERTY_NAME>
Tmax

>  <UNITS_TEXT>
h

>  <OBS_VALUE>
1.17

$$$$

* * *

test: Plasma and brain CX157 concentrations after oral dosing in rats; details: male, Sprague-Dawley, rat, plasma, po, 1 mg/kg

>  <SMI>
O=S1(=O)c2ccc(F)cc2Oc2cc(OCC(F)(F)F)ccc21

>  <concentration at 18 h>
4.5 ng/mL

$$$$

* * *

assay: Phase 1 single dose escalation pharmacokinetics; details: male, human, plasma, po, 20 mg
PROPERTY_NAME: Cmax (ng/mL)

>  <SMI>
O=S1(=O)c2ccc(F)cc2Oc2cc(OCC(F)(F)F)ccc21

>  <PROPERTY_NAME>
Cmax

>  <UNITS_TEXT>
ng/mL

>  <OBS_VALUE>
56.1

$$$$

* * *

experiment: Phase I 14-day twice-daily pharmacokinetics; details: human, plasma, oral, 20 mg, AUC0-12h, healthy volunteers, 20 mg twice daily, Day 14, mean
PROPERTY_NAME: AUC(0-t) (ng·h/mL)

>  <SMI>
O=S1(=O)c2ccc(F)cc2Oc2cc(OCC(F)(F)F)ccc21

>  <UNITS_TEXT>
ng·h/mL

>  <OBS_VALUE>
115

$$$$

* * *

assay: Phase 1 single dose escalation pharmacokinetics; details: male, human, plasma, po, 80 mg
PROPERTY_NAME: CL/F (L/h/kg)

>  <MOLECULE>
O=S1(=O)c2ccc(F)cc2Oc2cc(OCC(F)(F)F)ccc21 [CX157]

>  <UNITS_TEXT>
L/h/kg

>  <OBS_VALUE>
1.52

$$$$

* * *

Experiment: Phase I 14-day twice-daily pharmacokinetics
Settings: human, plasma, oral, 10 mg, Tmax, healthy volunteers, 10 mg twice daily, Day 1, median
Description: Methods: The study was a Phase I, single-center, randomized, parallel-group, multiple-dose, placebo-controlled, pharmacodynamic, pharmacokinetic and safety study in healthy volunteers. To obtain 24 enrolled subjects, screening procedures and inclusion/exclusion criteria were evaluated for 54 subjects during a variable screening period of up to 28 days. Once enrolled, subjects were randomized to either CX157 10 mg, 20 mg or 40 mg or matching placebo administered twice daily for 14 consecutive days. […]
PROPERTY_NAME: Tmax (h)

>  <SMI>
O=S1(=O)c2ccc(F)cc2Oc2cc(OCC(F)(F)F)ccc21

>  <UNITS_TEXT>
h

>  <OBS_VALUE>
1

$$$$
